Hello, the source for this data is patent US8329686B2, in case you need it.

target: caspase 1 (Homo sapiens, UniProt P29466); construct: purchased BIOMOL Research Laboratories (Plymouth Meeting, Pa.); test: Enzyme inhibition assay, caspase 1 (fluorogenic Ac-YVAD-AMC); assay type: biochemical; conditions: IC50 (nM) Casp-1, Table 7
Sequence (P29466 120-297 limits assumed): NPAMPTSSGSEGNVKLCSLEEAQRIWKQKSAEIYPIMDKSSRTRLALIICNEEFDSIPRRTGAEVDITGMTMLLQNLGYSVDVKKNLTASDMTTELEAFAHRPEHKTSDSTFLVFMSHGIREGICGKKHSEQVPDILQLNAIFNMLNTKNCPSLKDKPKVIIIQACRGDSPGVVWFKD
Sequence (P29466 317-404 limits assumed): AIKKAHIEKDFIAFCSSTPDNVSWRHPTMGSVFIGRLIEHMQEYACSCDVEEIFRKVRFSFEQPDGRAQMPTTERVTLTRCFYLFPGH
Would you mind telling me the reported IC50 of each entry?
Give bare numbers, in nM.

INSERT INTO measurements (compound, output_unit, measurement) VALUES
  ('N#CC(C#N)=C1C(=O)N(Cc2ccc(Br)cc2)c2ccc(S(=O)(=O)N3CCCC3COc3cccnc3)cc21 (stereo not shown) [Compound 30c]', 'nM', 3400),
  ('COc1ccc(CN2C(=O)C(=C(C#N)C#N)c3cc(S(=O)(=O)N4CCCC4COc4cccnc4)ccc32)cc1 (stereo not shown) [Compound 30d]', 'nM', 3900),
  ('N#CC(C#N)=C1C(=O)N(Cc2ccccc2)c2ccc(S(=O)(=O)N3CCCC3COc3cccnc3)cc21 (stereo not shown) [Compound 30a]', 'nM', 3250);

Pending compound:
For reference, reported IC50 for N#CC(C#N)=C1C(=O)N(Cc2ccc(O)cc2)c2ccc(S(=O)(=O)N3CCCC3COc3cccnc3)cc21 (stereo not shown) [Compound 30b] stands at 2720

###

Molecular target: caspase-3 (Homo sapiens)
Construct: purchased Sigma-Aldrich (St. Louis, Mo.)
Sequence (P42574 29-175 limits assumed): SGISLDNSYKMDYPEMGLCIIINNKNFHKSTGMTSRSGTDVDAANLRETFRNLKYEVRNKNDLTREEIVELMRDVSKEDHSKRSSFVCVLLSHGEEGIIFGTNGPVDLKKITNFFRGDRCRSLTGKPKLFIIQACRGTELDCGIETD
Sequence (P42574 176-277 limits assumed): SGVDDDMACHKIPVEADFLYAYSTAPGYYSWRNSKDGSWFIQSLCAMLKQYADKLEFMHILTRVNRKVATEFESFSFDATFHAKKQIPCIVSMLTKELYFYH
Experiment: Enzyme inhibition assay, caspase 3 (fluorogenic Ac-DEVD-AMC)
Format: biochemical
Settings: Table 4; read-out: IC50 (nM) caspase-3
One threshold, 20 nM, splits the recorded IC50 values: lower ones are True, equal or higher ones are False.

INSERT INTO results (molecule, assigned_class) VALUES
  ('O=C1C(=O)N(Cc2ccccc2)c2ccc(S(=O)(=O)N3CCC[C@H]3COc3ccccc3)cc21 [Compound 2]', 'True'),
  ('O=C1C(=O)N(Cc2ccnc(F)c2)c2ccc(S(=O)(=O)N3CCC[C@H]3COc3ccccc3)cc21 [Compound 11h]', 'False'),
  ('O=C1Nc2ccc(S(=O)(=O)N3CCC[C@H]3COc3ccccc3)cc2C1=O [Compound 10]', 'False');

// query Please let me know if O=C1C(=O)N(Cc2ccc(F)nc2)c2ccc(S(=O)(=O)N3CCC[C@H]3COc3ccccc3)cc21 [Compound 11g] shows IC50 below 20 nM.
// result True

// query Please let me know if O=C1C(=O)N(Cc2cccc(F)n2)c2ccc(S(=O)(=O)N3CCC[C@H]3COc3ccccc3)cc21 [Compound 11i] shows IC50 below 20 nM.
// result True

// query Please let me know if O=C1C(=O)N(Cc2ccc(O)cc2)c2ccc(S(=O)(=O)N3CCC[C@H]3COc3ccccc3)cc21 [Compound 11f] shows IC50 below 20 nM.
// result True
